Assay: Primary redox qHTS assay for identification of artifact compounds. (AID 1845223)
Conditions: Amplex Red/HRP redox cycling with DTT, fluorescence; series mostly up to 53.8 µM
Inconclusive results are not listed. Activity calls are given as the source filed them. The call rests on the fitted dose curve; in most records, active means well fitted activation curve with a large enough effect; inconclusive means small, poorly fitted or top-dose-only effect; inactive means flat fitted curve, though single readings scatter.
MEASUREMENT_NAME: redox activity (% of DA3003)

MOLECULE: C[C@@]12CC[C@@H]3[C@@](CC[C@H]4[C@@]3(C)CCC[C@@]4(C)C(=O)O)(CC1=O)C2
redox activity (% of DA3003): inactive

MOLECULE: C=C1CC2C(C)(CCC(=O)O)C(C(C)(C)O)CCC2(C)C2C(=O)OC(C)(C(=O)OC)C(=O)C12C (stereo not given)
redox activity (% of DA3003): inactive

MOLECULE: NC(=O)c1cccc(-c2cc(OC(=O)NC3CCCCC3)ccc2O)c1
redox activity (% of DA3003): inactive

MOLECULE: Cc1ccc(S(=O)(=O)Nc2ccccc2N2CCCCC2)s1
redox activity (% of DA3003): inactive

--- query ---
*Q* Retrieve redox activity (% of DA3003) measured for Cc1nc(NC(=O)N2CCCC2C(N)=O)sc1-c1csc(C(C)(C)C)n1 (stereo not given) and print it.
*A* inactive
